Tested on: LXRb homodimer (NR concentration 270 nM)
Test: PBM binding z-score (relative to random genomic background probes); higher = stronger binding; sequences stand for … in GC…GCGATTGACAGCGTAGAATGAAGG
Quantity Measured: PBM binding z-score
Keep it simple and answer with nothing but the number.

PBM binding z-score measured on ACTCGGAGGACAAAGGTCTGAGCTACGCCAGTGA = -0.665

Noted for CCTAGTTGGTCAAGGTCGCACACGCTATAGGTAC : its PBM binding z-score reads -0.0478

According to the records, this sequence ATCGAAAGGTCGTGAGGAGAGTATACAGAAAGGC displays PBM binding z-score of 1.13

Entry ATATGTAGGTTACGGGTCATTCAGGTTGGTTCGC — recorded PBM binding z-score = 0.71

// PBM binding z-score lookup, sequence = ACTTACGGGACAACGAGGTTATAGCACGCGTATA , result: 0.473

Lookup result for ACTCGGAGGAGAAAGGTCAGAGCTACGCCAGTGA ; measured PBM binding z-score: -0.215

TCATATAGGTAAACAGGTAAAAGTCCGTAAGTTA yielded PBM binding z-score of 0.214

Briefly, PBM binding z-score measured for GCTTGTAGATCCAGGTTAAGAAAGACTAAGCTAA : -0.462

So, CGTCCAAGGTCAAGGCCAGTGAAAGAGACTCGAA ? Its PBM binding z-score was 0.00439

Please fill in: PBM binding z-score reported for GCTAGCAGGCCATTTGGGTCTCTCAATGACGGGC = -1.24

// sample ATCGAAAGGTCGTGAGGGGAGTATACAGAAAGGC , its PBM binding z-score was 1.22

PBM binding z-score reading for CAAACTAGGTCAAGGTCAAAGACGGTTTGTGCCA : 1.4

Lab note: TCAGCTAGGTCAACGATGGTCAGCTAATCTGCTA gave PBM binding z-score of -0.491

PBM binding z-score recorded for this sequence, GCATATAGGTAATACAAGGTAAAAGTCCGATTGT , is -0.093

Please fill in: PBM binding z-score reported for AGAATGAGTTTAAGATCAGGGAAACAGAATACAT = -0.243

According to the records, this sequence GCTATTAGTAGAAAGGGCAACCGAATGATTCTCG displays PBM binding z-score of -0.195

// PBM binding z-score value for CCTAGCAGGCCATTCTGGGTCACTCAAGGCTTGA : -0.726

Short answer for CCTCGGAGGACAGAACGTCAGAGCTGTCCGCTTT : PBM binding z-score was -1.1

// PBM binding z-score lookup, sequence = TTACCAAGGTGAGCTGAGGTCGTTGACCCAACTC , result: -0.784

sequence CCGACTGGGGCCAAGGTTACCATACTCAGTACGA , PBM binding z-score observed: -0.267

Quick note, PBM binding z-score for TAGCCTAGGTCATTCAGGGGCCAGGATAGAAAGC landed at 0.864

Value of PBM binding z-score reported for the sequence ACAGACAGGTGAGTGTAGGTAACTCAGCTGGACG is -0.878

The reported PBM binding z-score of the sequence TCACACAGGTGAAGGTAACTCAGGTACGCAGTCG was -0.466

// AGAATGAGGTTATACGTAGACCAGGGAAGAAAGT : PBM binding z-score value = -0.0466

PBM binding z-score reported for this sequence GGAAAGAGGGCAAGTTGATAGCAGAGTTTGATGG : 0.718

Form: sequence = CCAGACAGGTGAAATGTAACTCAGTCTGGTACGC ; PBM binding z-score = 0.0964
